# measurement-protocol: photoluminescence quantum yield (fraction); solvent given as SMILES
# conditions: in CC#N
Decide by photoluminescence quantum yield: equal to or exceeding 0.7 means t, less means f.

Form field: photoluminescence quantum yield at least 0.7? Entry: `CN(C)c1ccc2nc(-c3ccc(C=C4C(=O)c5ccccc5C4=O)cc3)sc2c1`
f

Quick check: does `COc1ccc(-n2nc(C#N)c(N3CCCC3)n2)cc1OC` have photoluminescence quantum yield greater than or equal to 0.7?
t

Is photoluminescence quantum yield for `COc1c2ccccc2c(OC)c2c1c1c(F)cccc1n2C` at or above 0.7?
f

Would you say CCCCCCCCCCCCC(CCCCCCCCCC)Cn1c2cc(C=C(C#N)C#N)c3cccc4c5cccc6c(C=C(C#N)C#N)cc1c(c65)c2c34 (stereo not given) shows photoluminescence quantum yield at minimum 0.7?
f

Is photoluminescence quantum yield at least 0.7? Consider `O=C(O)c1ccccc1Nc1cccc(C(F)(F)F)c1`
f

Tell me whether photoluminescence quantum yield is at least 0.7 here: `CCCCOc1ccc(/C=C/C=C/C=C/c2ccc([N+](=O)[O-])cc2)cc1`
f

Could you please find out whether `CCC(=O)c1ccc2cc(N(C)C)ccc2c1` has photoluminescence quantum yield that meets 0.7 or exceeds it?
t

Does the reported photoluminescence quantum yield for `O=Cc1cc(C=O)c2ccc3c(N4CCCCC4)cc(N4CCCCC4)c4ccc1c2c43` fall at or above the 0.7 mark?
t

Answer whether photoluminescence quantum yield of `CC(C)(C)c1ccc(C2=CC3=C(c4ccccc4)c4cc(-c5ccc(C(C)(C)C)cc5)c(-c5ccc(C(C)(C)C)cc5)n4[B-](F)(F)[N+]3=C2c2ccc(C(C)(C)C)cc2)cc1` is greater than or equal to 0.7.
f

---

# measurement-protocol: photoluminescence quantum yield (fraction); solvent given as SMILES
# conditions: in ClC(Cl)Cl
readout-name: photoluminescence quantum yield
Please reply with the value in numeric form only.

Need photoluminescence quantum yield, item `CC1=[N+]2C(=c3c4c5ccccc5cc5cccc(c6cc(C)n(c36)[B-]2(F)F)c54)C=C1`
0.4

Name the reported photoluminescence quantum yield value associated with the compound `CCNc1cc2c(cc1C)C(c1ccccc1C(=O)O)=C1CCCC(/C=C/C3=[N+](C)c4ccccc4C3(C)C)=C1O2`
0.54

Dear colleague, I am looking for the recorded photoluminescence quantum yield of the following compound: `C[N+]1=C(/C=C/C2=C3Oc4c(cc5c6c4CCCN6CCC5)C(c4ccccc4C(=O)O)=C3CCC2)C(C)(C)c2c1ccc1ccccc21`
0.46

Suppose we examine the compound `C[N+]1=C(/C=C/C2=C3Oc4c(cc5c6c4CCCN6CCC5)C(c4ccccc4C(=O)O)=C3CCC2)C(C)(C)c2ccccc21` ; what photoluminescence quantum yield value has been reported?
0.51

Need photoluminescence quantum yield of `CCCCCCN1C(=O)C(c2ccc(-c3ccc(-n4c5ccccc5c5ccccc54)cc3)cc2)=C(c2ccc(-c3ccc(-n4c5ccccc5c5ccccc54)cc3)cc2)C1=O` , thanks.
0.84

Entry `COC(=O)c1cc(=O)n(C)c2cc(-c3ccc(OC)cc3)sc12` : reported photoluminescence quantum yield = ?
0.95

For the compound `COc1cccc2cc(-c3ccc([N+](=O)[O-])cc3)c(=O)oc12` , what photoluminescence quantum yield is on record?
0.014

Returns the measured photoluminescence quantum yield for the input compound. Input: `c1ccc2c(c1)cc(-c1cc(-c3nccs3)nc(-c3nccs3)c1)c1ccccc12`
0.312

Attribution: the Deep4Chem optical property database
